Entries and their CC50 values follow.
Tested on: PBMC
Test: Cytotoxicity against human PBMC cells
Format: cell-based
Conditions: pbmc
attribute_measured: CC50

compound	observed_value
O=C(O)[C@H]1C2C=CC(CC2)[C@@H]1Nc1nc(-c2c[nH]c3ncc(F)cc23)nc2sccc12 (stereo partly drawn)	9.3 µM
O=C(O)[C@H]1C2C=CC(CC2)[C@@H]1Nc1nc(-c2n[nH]c3ncc(F)cc23)ncc1F (stereo partly drawn)	> 100 µM
O=C(O)[C@H]1C2C=CC(C2)[C@@H]1Nc1nc(-c2c[nH]c3ncc(F)cc23)ncc1F (stereo partly drawn)	> 100 µM
O=C(O)[C@H]1C2CCC(CC2)[C@@H]1Nc1nc(-c2c[nH]c3ncc(F)cc23)ncc1F	> 100 µM
Cc1csc2c(N[C@H]3C4C=CC(CC4)[C@@H]3C(=O)O)nc(-c3c[nH]c4ncc(F)cc34)nc12 (stereo partly drawn)	> 100 µM
Cn1cnc2nc(-c3c[nH]c4ncc(F)cc34)nc(N[C@H]3C4C=CC(CC4)[C@@H]3C(=O)O)c21 (stereo partly drawn)	> 100 µM
Cc1cc2nc(-c3c[nH]c4ncc(F)cc34)nc(N[C@H]3C4C=CC(CC4)[C@@H]3C(=O)O)c2s1 (stereo partly drawn)	78.4 µM
O=C(O)[C@H]1C2C=CC(CC2)[C@@H]1Nc1nc(-c2n[nH]c3ncc(F)cc23)nc2sccc12 (stereo partly drawn)	> 100 µM

----------
Tested on: CCRF-CEM
Assay: Cytotoxicity against human CEM cells
Assay type: cell-based
I'd appreciate it if you marked entries criterion met when CC50 is lower than 30 µM and criterion not met when it is not.

molecule	label
O=C(O)[C@H]1C2C=CC(C2)[C@@H]1Nc1nc(-c2c[nH]c3ncc(F)cc23)ncc1F (some centres not stated)	criterion not met
Cc1csc2c(N[C@H]3C4C=CC(CC4)[C@@H]3C(=O)O)nc(-c3c[nH]c4ncc(F)cc34)nc12 (some centres not stated)	criterion not met
O=C(O)[C@H]1C2C=CC(CC2)[C@@H]1Nc1nc(-c2c[nH]c3ncc(F)cc23)nc2sccc12 (some centres not stated)	criterion met
O=C(O)[C@H]1C2CCC(C3CC32)[C@@H]1Nc1nc(-c2c[nH]c3ncc(F)cc23)ncc1F (some centres not stated)	criterion not met
O=C(O)[C@H]1C2CCC(CC2)[C@@H]1Nc1nc(-c2c[nH]c3ncc(F)cc23)ncc1F	criterion not met
Cn1cnc2nc(-c3c[nH]c4ncc(F)cc34)nc(N[C@H]3C4C=CC(CC4)[C@@H]3C(=O)O)c21 (some centres not stated)	criterion not met
O=C(O)[C@H]1C2C=CC(CC2)[C@@H]1Nc1nc(-c2n[nH]c3ncc(F)cc23)nc2ccsc12 (some centres not stated)	criterion not met
O=C(O)[C@H]1C2C=CC(CC2)[C@@H]1Nc1nc2cnc(-c3c[nH]c4ncc(F)cc34)nc2s1 (some centres not stated)	criterion met
O=C(O)C12CC3CC(CC(Nc4nc(-c5c[nH]c6ncc(F)cc56)ncc4F)(C3)C1)C2	criterion met
O=C(O)[C@H]1C2C=CC(CC2)[C@@H]1Nc1nc(-c2n[nH]c3ncc(F)cc23)nc2sccc12 (some centres not stated)	criterion met
Cc1cc2nc(-c3c[nH]c4ncc(F)cc34)nc(N[C@H]3C4C=CC(CC4)[C@@H]3C(=O)O)c2s1 (some centres not stated)	criterion met
O=C(O)[C@H]1C2C=CC(CC2)[C@@H]1c1nnc2c(F)cnc(-c3c[nH]c4ncc(F)cc34)n12 (some centres not stated)	criterion not met
O=C(O)[C@H]1C2C=CC(CC2)[C@@H]1Nc1nc(-c2c[nH]c3ncc(F)cc23)nc2ccsc12 (some centres not stated)	criterion not met
O=C(O)[C@H]1C2C=CC(CC2)[C@@H]1Nc1nc(-c2n[nH]c3ncc(F)cc23)ncc1F (some centres not stated)	criterion not met
O=C(O)[C@H]1C2C=CC(CC2)[C@@H]1Nc1nc(-c2c[nH]c3ncc(F)cc23)ncc1F (some centres not stated)	criterion not met

----------
Test system: Vero
Experiment: Cytotoxicity against African green monkey Vero cells
Assay type: cell-based
Details: chlorocebus sabaeus
Entries and their CC50 values follow.

compound	CC50
O=C(O)[C@H]1C2C=CC(CC2)[C@@H]1Nc1nc(-c2c[nH]c3ncc(F)cc23)nc2sccc12 (some centres undefined)	65.9 µM
O=C(O)[C@H]1C2CCC(C3CC32)[C@@H]1Nc1nc(-c2c[nH]c3ncc(F)cc23)ncc1F (some centres undefined)	> 100 µM
Cn1cnc2nc(-c3c[nH]c4ncc(F)cc34)nc(N[C@H]3C4C=CC(CC4)[C@@H]3C(=O)O)c21 (some centres undefined)	> 100 µM
Cc1csc2c(N[C@H]3C4C=CC(CC4)[C@@H]3C(=O)O)nc(-c3c[nH]c4ncc(F)cc34)nc12 (some centres undefined)	> 100 µM

----------
Tested on: Huh-7
Assay: Cytotoxicity against human HuH7 cells
Assay type: cell-based
Entries and their CC50 values follow.
attribute_measured: CC50 (µM)

compound	attribute_measured	lt_gt_eq	observed_value
O=C(O)[C@H]1C2C=CC(CC2)[C@@H]1Nc1nc(-c2n[nH]c3ncc(F)cc23)nc2sccc12 (stereo not given in full)	CC50	=	62.7
O=C(O)C12CC3CC(CC(Nc4nc(-c5c[nH]c6ncc(F)cc56)ncc4F)(C3)C1)C2	CC50	=	14.3
O=C(O)[C@H]1C2C=CC(CC2)[C@@H]1Nc1nc(-c2c[nH]c3ncc(F)cc23)nc2sccc12 (stereo not given in full)	CC50	=	24
Cc1csc2c(N[C@H]3C4C=CC(CC4)[C@@H]3C(=O)O)nc(-c3c[nH]c4ncc(F)cc34)nc12 (stereo not given in full)	CC50	>	100
O=C(O)[C@H]1C2C=CC(CC2)[C@@H]1c1nnc2c(F)cnc(-c3c[nH]c4ncc(F)cc34)n12 (stereo not given in full)	CC50	≥	100
Cc1cc2nc(-c3c[nH]c4ncc(F)cc34)nc(N[C@H]3C4C=CC(CC4)[C@@H]3C(=O)O)c2s1 (stereo not given in full)	CC50	=	31.2
O=C(O)[C@H]1C2C=CC(CC2)[C@@H]1Nc1nc2cnc(-c3c[nH]c4ncc(F)cc34)nc2s1 (stereo not given in full)	CC50	=	70.2
O=C(O)[C@H]1C2C=CC(CC2)[C@@H]1Nc1nc(-c2n[nH]c3ncc(F)cc23)nc2ccsc12 (stereo not given in full)	CC50	=	70.7
Cn1cnc2c(N[C@H]3C4C=CC(CC4)[C@@H]3C(=O)O)nc(-c3c[nH]c4ncc(F)cc34)nc21 (stereo not given in full)	CC50	>	100
O=C(O)[C@H]1C2C=CC(CC2)[C@@H]1Nc1cc2nncn2c(-c2c[nH]c3ncc(F)cc23)n1 (stereo not given in full)	CC50	=	71
O=C(O)[C@H]1C2C=CC(C2)[C@@H]1Nc1nc(-c2c[nH]c3ncc(F)cc23)ncc1F (stereo not given in full)	CC50	>	100
O=C(O)[C@H]1C2C=CC(CC2)[C@@H]1Nc1nc(-c2n[nH]c3ncc(F)cc23)ncc1F (stereo not given in full)	CC50	=	83
O=C(O)[C@H]1C2C=CC(CC2)[C@@H]1Nc1nc(-c2c[nH]c3ncc(F)cc23)nc2ccsc12 (stereo not given in full)	CC50	=	68.7
Cn1cnc2nc(-c3c[nH]c4ncc(F)cc34)nc(N[C@H]3C4C=CC(CC4)[C@@H]3C(=O)O)c21 (stereo not given in full)	CC50	>	100
O=C(O)[C@H]1C2CCC(CC2)[C@@H]1Nc1nc(-c2c[nH]c3ncc(F)cc23)ncc1F	CC50	=	95.8

----------
Entries and their CC50 values follow.
Test system: A549
Assay: Cytotoxicity against human A549 cells
Type: cell-based

compound	readout_units	lt_gt_eq	CC50
O=C(O)[C@H]1C2C=CC(CC2)[C@@H]1Nc1nc(-c2c[nH]c3ncc(F)cc23)nc2sccc12 (stereo partly specified)	µM	=	14.5
Cc1csc2c(N[C@H]3C4C=CC(CC4)[C@@H]3C(=O)O)nc(-c3c[nH]c4ncc(F)cc34)nc12 (stereo partly specified)	µM	>	100
O=C(O)[C@H]1C2C=CC(CC2)[C@@H]1Nc1cc2nncn2c(-c2c[nH]c3ncc(F)cc23)n1 (stereo partly specified)	µM	=	51.9
O=C(O)[C@H]1C2C=CC(CC2)[C@@H]1Nc1nc(-c2n[nH]c3ncc(F)cc23)ncc1F (stereo partly specified)	µM	=	30.6
O=C(O)[C@H]1C2C=CC(CC2)[C@@H]1c1nnc2c(F)cnc(-c3c[nH]c4ncc(F)cc34)n12 (stereo partly specified)	µM	=	65.4
O=C(O)[C@H]1C2C=CC(CC2)[C@@H]1Nc1nc(-c2n[nH]c3ncc(F)cc23)nc2ccsc12 (stereo partly specified)	µM	=	32.5
Cn1cnc2c(N[C@H]3C4C=CC(CC4)[C@@H]3C(=O)O)nc(-c3c[nH]c4ncc(F)cc34)nc21 (stereo partly specified)	µM	≥	100
O=C(O)[C@H]1C2C=CC(CC2)[C@@H]1Nc1nc2cnc(-c3c[nH]c4ncc(F)cc34)nc2s1 (stereo partly specified)	µM	=	31.3
O=C(O)C12CC3CC(CC(Nc4nc(-c5c[nH]c6ncc(F)cc56)ncc4F)(C3)C1)C2	µM	=	16.2
O=C(O)[C@H]1C2C=CC(CC2)[C@@H]1Nc1nc(-c2c[nH]c3ncc(F)cc23)nc2ccsc12 (stereo partly specified)	µM	=	14.7
O=C(O)[C@H]1C2CCC(C3CC32)[C@@H]1Nc1nc(-c2c[nH]c3ncc(F)cc23)ncc1F (stereo partly specified)	µM	=	94.6
O=C(O)[C@H]1C2C=CC(CC2)[C@@H]1Nc1nc(-c2n[nH]c3ncc(F)cc23)nc2sccc12 (stereo partly specified)	µM	>	100
O=C(O)[C@H]1C2C=CC(C2)[C@@H]1Nc1nc(-c2c[nH]c3ncc(F)cc23)ncc1F (stereo partly specified)	µM	>	100
O=C(O)[C@H]1C2CCC(CC2)[C@@H]1Nc1nc(-c2c[nH]c3ncc(F)cc23)ncc1F	µM	=	20
Cn1cnc2nc(-c3c[nH]c4ncc(F)cc34)nc(N[C@H]3C4C=CC(CC4)[C@@H]3C(=O)O)c21 (stereo partly specified)	µM	>	100
Cc1cc2nc(-c3c[nH]c4ncc(F)cc34)nc(N[C@H]3C4C=CC(CC4)[C@@H]3C(=O)O)c2s1 (stereo partly specified)	µM	=	41.7

The reported numbers originate from ChEMBL document CHEMBL4396965.
